From: the supplement of paper PMC10065799

System: AncSZ;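 also: 11-residue human phosphosite peptides and single-mutation variants displayed on the E. coli surface, counted by deep sequencing, each peptide's frequency after selection divided by its frequency in the unselected input library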;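 also: frequency after pTyr selection over input frequency; kinase dosed for 20-30% of maximal phosphorylation in three min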
Experiment: phosphorylation enrichment, bacterial display (enrichment ratio); higher = better substrate or ligand; peptides without Tyr show the background
Would you mind labelling by phosphorylation enrichment? At or over 0.9 is MET, under is NOT MET.

> print(dat)
                              sequence  grouplabel
 1  SLAARYFNWVC [FLT4_Y1230_S1235C_YF]         MET
 2      KHGGNYVPAPE [OSCP1_Y237_K242E]     NOT MET
 3       YRVAGYKTQGG [TIA1_Y383_E384K]     NOT MET
 4     IRTIDYRFTVC [IDS_Y497_W502C_YF]         MET
 5        GCKNRYDEDKP [THAP1_Y14_K16E]     NOT MET
 6              GYQPDYGQPAG [SYP_Y278]     NOT MET
 7              SDTGQYQCLVF [AXL_Y115]         MET
 8         AASTDYFKRGD [PDHA1_Y242_YF]     NOT MET
 9             NKPTVYGVSPN [ABL1_Y226]     NOT MET
10       KFMVGYEMIAQ [GALT_Y339_L342I]         MET

Incoming: For this sequence, is measured phosphorylation enrichment 0.9 or higher? FVSIVYNDFGE [TSC2_Y1650_S1653F]
Outgoing: MET

Incoming: Follow-up entry: GGYTCYCDGKK [PROS1_Y266]
Outgoing: MET

Incoming: Follow-up entry: CRWKRYQCSHD [GDPD5_Y30_R32C]
Outgoing: NOT MET

Incoming: Follow-up entry: EEALHYLTRVE [SET_Y119]
Outgoing: MET

Incoming: Follow-up entry: PSELFYSKISP [SMG1_Y2254_G2258S_YF]
Outgoing: MET

Incoming: Follow-up entry: QITQVYGFYHE [PPP2CA_Y127_D131H]
Outgoing: MET

Incoming: Follow-up entry: SLNEEYAKNKT [MSH2_Y563_T564A]
Outgoing: NOT MET

Incoming: Follow-up entry: ERDTVYSSSGV [NELL2_Y350_N347D]
Outgoing: NOT MET

Incoming: Follow-up entry: PASWTYVRWFD [PTDSS1_Y274]
Outgoing: MET

Incoming: Follow-up entry: EQKKFYNATKK [SCN5A_Y1495_M1498T_YF]
Outgoing: NOT MET

Incoming: Follow-up entry: AEMKRYAESSS [RAI14_Y869]
Outgoing: NOT MET

Incoming: Follow-up entry: PIGRKYKKVRF [F8_Y442_R437P]
Outgoing: NOT MET

Incoming: Follow-up entry: FQEKGYNKELR [CHRND_Y38]
Outgoing: NOT MET

Incoming: Follow-up entry: VPHECYAKVFD [ALB_Y394_D389V]
Outgoing: MET

Incoming: Follow-up entry: ETPSEYLEIVR [TMEM130_Y412]
Outgoing: MET

Incoming: Follow-up entry: GAVGNYSRGLA [MGMT_Y158_G160R]
Outgoing: NOT MET

Incoming: Follow-up entry: NLMPAYYKCIQ [CYP21A2_Y190]
Outgoing: MET

Incoming: Follow-up entry: IEDNEYTAREG [HCK_Y411]
Outgoing: MET

Incoming: Follow-up entry: PAGSGYPAFLG [ATP6V1A_Y374_D371G_YF]
Outgoing: MET

Incoming: Follow-up entry: TQTPPYVKKHP [LARP1B_Y457]
Outgoing: NOT MET

Incoming: Follow-up entry: EEALFYLTRVE [SET_Y119_H118Y_YF]
Outgoing: MET

Incoming: Follow-up entry: YFWDGYMPRQY [GSS_Y270_R267W]
Outgoing: MET
